# Test system: SF-268 CNS
# assay.details: NCI tumour cell line growth inhibition, 48 h
TGI reference

{"compound": "CCOc1cc2oc(C)cc(=O)c2c(OC)c1C=Nc1ccc(Cn2c(C)nc3ccccc32)cc1", "TGI": "> 100 µM"}

# query: TGI | item CCOC(=O)c1[nH]cc(C)c1-c1ccc2c(-c3ccccc3)nc3ccccc3n12 | system: SF-268 CNS
17.1 µM

* * *

# Test system: DMS 273 small cell lung
# assay.details: NCI tumour cell line growth inhibition, 48 h
TGI reference

Worked cases, TGI given:
{"compound": "CC(=O)NC1C(OCc2ccccc2)OC(COC(=O)CCCCCCCCCCNc2ccc([N+](=O)[O-])c3[nH]c4ccccc4c(=O)c23)C(O)C1OC(C)C(=O)NC(C)C(=O)NC(CCC(N)=O)C(=O)OCc1ccccc1 (stereo not given)", "TGI": "> 100 µM"}
{"compound": "COc1ccccc1NC(=O)c1nc2ccc([N+](=O)[O-])cc2nc1C", "TGI": "> 100 µM"}
{"compound": "Cc1cc(C)nc(NS(=O)(=O)c2ccc(Nc3c4ccc(Cl)cc4nc4c(C(=O)NCCN(C)C)cccc34)cc2)n1", "TGI": "> 100 µM"}
{"compound": "COc1cccc(NC(=O)C(=O)C(C(=O)c2ccccc2F)C2OC(=O)c3ccccc32)c1 (stereo not given)", "TGI": "> 100 µM"}

May I ask what TGI has been recorded for OCCN1CCN2C=C(C3CCCC4N(CCO)CCN34)CCC21 (stereo not given) ?
> 100 µM

Now give it for Ic1cc2c(cc1C1SCCCS1)OCO2 too.
> 100 µM

Now give it for COC1(O)c2cccc(Cl)c2C(=O)N1C1(C(N)=O)CCCCC1 (stereo not given) too.
> 100 µM

Now give it for CC#CC1C2CCCC1(CSc1ccccc1)NC(=O)O2 (stereo not given) too.
> 100 µM

Now give it for Cc1c2ccncc2c(C)c2c1[nH]c1ccc(OCC(F)(F)F)cc12 too.
2.17 µM

Now give it for c1ccc2c(c1)N=C(c1cccc3ccccc13)CC(c1ccc3c(c1)OCO3)S2 (stereo not given) too.
> 100 µM

Now give it for NNC(=O)N/N=C1\C(=O)N(c2ccc(Cl)c(Cl)c2)C(=O)C(=O)C1c1nc2ccccc2s1 (stereo not given) too.
> 100 µM

* * *

# System: RPMI-8226 leukemia
# assay.details: NCI tumour cell line growth inhibition, 48 h; in the data active = GI50 below about 0.43 µM; inactive = the rest
API: response.call in t (active), f (inactive)

These solved cases illustrate the format of a correct answer.
{"compound": "CCN1Cc2nc3sc(C)c(C)c3c(=O)n2C=C1C", "measurement.target": "RPMI-8226 leukemia", "label": "f"}
{"compound": "CC1(C)[C@@H](OC(=O)CCC(=O)O)CC[C@]2(C)[C@H]3C(=O)C=C4[C@@H]5C[C@@](C)(C(=O)O)CC[C@]5(C)CC[C@@]4(C)[C@]3(C)CC[C@@H]12", "measurement.target": "RPMI-8226 leukemia", "label": "f"}
{"compound": "CCN(CC)C1CCC(Nc2c(C(C)=O)cnc3ccc(-c4ccc(O)c(Cl)c4)cc23)CC1 (stereo not given)", "measurement.target": "RPMI-8226 leukemia", "label": "t"}
{"compound": "Cn1c(=O)c(Oc2ccc(F)cc2F)cc2cnc(NC3CCS(=O)(=O)CC3)nc21", "measurement.target": "RPMI-8226 leukemia", "label": "f"}
{"compound": "COc1ccc(Nc2cc(C)nc(NCCCNc3ccnc4cc(Cl)ccc34)n2)cc1", "measurement.target": "RPMI-8226 leukemia", "label": "f"}

Outcome logged for Cn1c(NCC(O)CN2CCCC2)cc(=O)n(C)c1=O (stereo not given) in this assay:
f

Now give it for C[C@@H](Oc1ccc(C(=O)NS(=O)(=O)C(C)(C)C)cc1C(F)(F)F)c1ccc(Oc2ccccc2)cn1 too.
f

Now give it for c1ccc2cc(C[n+]3ccn(CCCCCCCCCCn4cc[n+](Cc5ccc6ccccc6c5)c4)c3)ccc2c1 too.
f

Now give it for Cc1cc(N(CCCl)CCCl)ccc1C=Nc1ccc2ccccc2c1 too.
f

Now give it for NCC1OC(OC2C(CO)OC(OC3C(O)C(N)CC(N)C3OC3OC(CO)C(O)CC3N)C2O)C(N)C(O)C1OC1OC(CO)C(O)C(O)C1O (stereo not given) too.
f
